experiment: Cell Viability - LYMP2-008 (AID 980); conditions: LYMP2-008 lymphoblastoid cell viability, qHTS; series mostly up to 92.2 µM; note: nearly all actives have a fitted effect of over 60% in size
Records with an inconclusive call do not appear. Calls of active or inactive are those of the source. Calls come from the whole dose curve; as a rule, active = well fitted cell-killing curve with a large enough effect; inconclusive = small, poorly fitted or top-dose-only effect; inactive = flat fitted curve, though single readings scatter.
Possible outcomes: 1.0 for active, 0.0 for inactive

Compound: Oc1ccccc1O
Assigned Category: 0.0
--
Compound: CN(C)CCC(c1ccc(Cl)cc1)c1ccccn1 (centres undefined)
Assigned Category: 0.0
--
Compound: C#C[C@]1(O)CC[C@H]2[C@@H]3CCc4cc(O)ccc4[C@H]3CC[C@@]21C
Assigned Category: 0.0
--
Compound: c1ccc2sc(SSc3nc4ccccc4s3)nc2c1
Assigned Category: 0.0
--
Compound: Nc1ccc(O)c([N+](=O)[O-])c1
Assigned Category: 0.0
--
Compound: S=c1[nH]c2ccccc2s1
Assigned Category: 0.0
--
Compound: O=C(O)c1cc(O)c(O)c(O)c1
Assigned Category: 0.0
--
Compound: CN(C)c1ccc(C(=C2C=CC(=[N+](C)C)C=C2)c2ccccc2)cc1
Assigned Category: 1.0
--
Compound: COc1cc(CNC(=O)CCCC/C=C/C(C)C)ccc1O
Assigned Category: 0.0
--
Compound: CN(C)c1ccc(N=NS(=O)(=O)O)cc1
Assigned Category: 0.0
--
Compound: CN1CCC[C@H]1c1cccnc1
Assigned Category: 0.0
--
Compound: CC(C)NCC(O)COc1cccc2ccccc12 (centres undefined)
Assigned Category: 0.0
--
Compound: Nc1ccc(O)c(C(=O)O)c1
Assigned Category: 0.0
--
Compound: O=c1cc(-c2ccccc2)oc2ccccc12
Assigned Category: 0.0

====

test: NFAT Signaling Pathway (AID 444); settings: Jurkat NFAT-bla M1, carbachol, beta-lactamase ratio, 5 h; at 38 µM (top of the series) unless noted;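 note: carbachol stimulus at about its EC50 of 1 µM final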
Records with an inconclusive call do not appear. Activity calls are given as the source filed them. Calls follow the shape of the dose curve; as a rule, active = well fitted curve in either direction with a large enough effect (not every such curve was filed as active); inconclusive = small, poorly fitted or top-dose-only effect, or another doubt; inactive = flat fitted curve, though single readings scatter.
Classes used: 1 (yes) (active), 0 (no) (inactive)

Compound: CN1CCc2cc(NC(=O)Nc3cccnc3)ccc21
Assigned Category: 0 (no)
//
Compound: O=C(O)c1ccccc1Nc1cccc(C(F)(F)F)c1
Assigned Category: 0 (no)
//
Compound: O=c1[nH]c2cc(Cl)c(Cl)cc2[nH]c1=O
Assigned Category: 0 (no)
//
Compound: Oc1ccccc1O
Assigned Category: 0 (no)
//
Compound: Oc1cc2c(cc1O)CN(C(=S)NCCc1ccc(Cl)cc1)CCC2
Assigned Category: 0 (no)
//
Compound: CCCCCCCC/C=C\CCCCCCCC(=O)NCCO
Assigned Category: 0 (no)
//
Compound: NCCCS(=O)(=O)O
Assigned Category: 0 (no)
//
Compound: NCCCCCCCCCCN
Assigned Category: 0 (no)
//
Compound: c1ccc(-c2ccccn2)nc1
Assigned Category: 0 (no)
//
Compound: CC(C)(C=O)Cc1cc(C(C)(C)C)c(O)c(C(C)(C)C)c1
Assigned Category: 0 (no)
//
Compound: CC(=O)SCC[N+](C)(C)C
Assigned Category: 0 (no)
//
Compound: N.N.O=C(O)C1(C(=O)O)CCC1.[Pt]
Assigned Category: 0 (no)
//
Compound: CN1[C@@H]2CC[C@H]1CC(OC(c1ccccc1)c1ccccc1)C2 (some centres undefined)
Assigned Category: 1 (yes)
//
Compound: COc1ccccc1N1CCN(CCN(C(=O)c2ccc(I)cc2)c2ccccn2)CC1
Assigned Category: 0 (no)
